- TEST_SYSTEM: Androgen Receptor (AR) protein (Homo sapiens, UniProt P10275, T878A)
- Construct: endogenous in cells; host or cells: LNCaP
- Sequence (P10275 whole entry T878A): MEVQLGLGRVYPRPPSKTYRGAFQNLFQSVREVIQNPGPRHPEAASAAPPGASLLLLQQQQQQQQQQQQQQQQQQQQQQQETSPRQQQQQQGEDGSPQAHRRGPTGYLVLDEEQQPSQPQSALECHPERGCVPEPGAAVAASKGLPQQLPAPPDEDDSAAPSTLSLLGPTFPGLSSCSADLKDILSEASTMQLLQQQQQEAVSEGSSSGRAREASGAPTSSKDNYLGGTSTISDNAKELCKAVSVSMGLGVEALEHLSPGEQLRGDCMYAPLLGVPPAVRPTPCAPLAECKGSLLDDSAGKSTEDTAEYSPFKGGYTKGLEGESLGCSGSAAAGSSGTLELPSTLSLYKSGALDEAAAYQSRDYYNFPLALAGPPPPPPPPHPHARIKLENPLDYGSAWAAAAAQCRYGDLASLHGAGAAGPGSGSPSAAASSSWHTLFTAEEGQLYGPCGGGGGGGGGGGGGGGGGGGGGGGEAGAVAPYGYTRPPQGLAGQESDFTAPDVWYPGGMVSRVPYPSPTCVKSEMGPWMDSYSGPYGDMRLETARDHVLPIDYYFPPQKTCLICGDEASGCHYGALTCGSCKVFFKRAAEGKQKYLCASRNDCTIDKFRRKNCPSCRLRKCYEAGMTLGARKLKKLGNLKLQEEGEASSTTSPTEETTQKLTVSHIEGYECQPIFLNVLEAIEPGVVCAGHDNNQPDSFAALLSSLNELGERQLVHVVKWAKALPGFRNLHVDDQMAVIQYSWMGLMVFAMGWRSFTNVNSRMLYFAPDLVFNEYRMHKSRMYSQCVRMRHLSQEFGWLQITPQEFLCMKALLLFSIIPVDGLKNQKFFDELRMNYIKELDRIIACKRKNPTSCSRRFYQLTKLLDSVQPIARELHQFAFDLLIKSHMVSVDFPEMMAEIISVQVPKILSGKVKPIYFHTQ
- Sequence (Q96SW2 whole entry partner): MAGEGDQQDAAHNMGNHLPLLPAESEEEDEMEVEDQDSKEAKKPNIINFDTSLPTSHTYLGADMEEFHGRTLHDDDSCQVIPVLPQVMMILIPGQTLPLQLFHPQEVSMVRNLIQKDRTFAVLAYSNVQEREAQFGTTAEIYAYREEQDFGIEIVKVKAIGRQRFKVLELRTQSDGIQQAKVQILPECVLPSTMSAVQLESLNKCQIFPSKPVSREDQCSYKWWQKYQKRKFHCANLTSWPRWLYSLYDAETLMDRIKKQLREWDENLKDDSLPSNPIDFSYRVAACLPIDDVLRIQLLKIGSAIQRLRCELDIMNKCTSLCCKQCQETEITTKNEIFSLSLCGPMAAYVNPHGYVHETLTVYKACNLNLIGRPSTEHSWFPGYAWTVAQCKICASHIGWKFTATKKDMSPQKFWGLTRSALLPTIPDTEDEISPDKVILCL
- ASSAY_SUMMARY: Androgen Receptor (AR) protein degradation assay in LNCaP cells, western blotting
- Type: cell-based
- STUDY_CONDITIONS: 20 h, 1 μM compound
In this section we review reported inhibition at 1 µM values for a set of molecules.
PROPERTY_LABEL: inhibition at 1 µM

MOLECULE: C[C@H]1CN(CC2CCN(c3ccc(NC(=O)C4CCN(c5ccc(C#N)c(C(F)(F)F)c5)CC4)nc3)CC2)CCN1CC1CCN(c2ccc3c(n2)CN(C2CCC(=O)NC2=O)C3=O)CC1 (stereo partly shown) [Example 48]
TEST_SYSTEM: Androgen Receptor (AR) protein (Homo sapiens, UniProt P10275, T878A)
PROPERTY_LABEL: inhibition at 1 µM
RECORDED_VALUE: 87%
--
MOLECULE: CC1(CN2CCC(COc3ccc4c(c3)C(=O)N(C3CCC(=O)NC3=O)C4=O)CC2)CN(c2ccc(NC(=O)C3CCN(c4ccc(C#N)c(C(F)(F)F)c4)CC3)nc2)C1 (stereo not shown) [Example 180]
TEST_SYSTEM: Androgen Receptor (AR) protein (Homo sapiens, UniProt P10275, T878A)
PROPERTY_LABEL: inhibition at 1 µM
RECORDED_VALUE: 98%
--
MOLECULE: N#Cc1ccc(N2CCC(C(=O)Nc3ccc(N4CCC(CN5CCN(CC6CN(c7ccc8c(c7)C(=O)N(C7CCC(=O)NC7=O)C8=O)C6)CC5)CC4)cn3)CC2)cc1C(F)(F)F (stereo not shown) [Example 11]
TEST_SYSTEM: Androgen Receptor (AR) protein (Homo sapiens, UniProt P10275, T878A)
PROPERTY_LABEL: inhibition at 1 µM
RECORDED_VALUE: 97%
--
MOLECULE: N#Cc1ccc(N2CCC(C(=O)Nc3ccc(N4CCC(CN5CCN(C[C@@H]6CCN(c7ccc8c(n7)CN(C7CCC(=O)NC7=O)C8=O)C6)CC5)CC4)cn3)CC2)cc1C(F)(F)F (stereo partly shown) [Example 37]
TEST_SYSTEM: Androgen Receptor (AR) protein (Homo sapiens, UniProt P10275, T878A)
PROPERTY_LABEL: inhibition at 1 µM
RECORDED_VALUE: 90%
--
MOLECULE: N#Cc1ccc(N2CCC(C(=O)Nc3ccc(OC4CCN(CC5CN(c6ccc7c(c6)C(=O)N(C6CCC(=O)NC6=O)C7=O)C5)CC4)cn3)CC2)cc1C(F)(F)F (stereo not shown) [Example 171]
TEST_SYSTEM: Androgen Receptor (AR) protein (Homo sapiens, UniProt P10275, T878A)
PROPERTY_LABEL: inhibition at 1 µM
RECORDED_VALUE: 95%
--
MOLECULE: N#Cc1ccc(N2CCC(F)(C(=O)Nc3ccc(N4CCC(CN5CC6(CCN(c7ccc8c(c7)CN(C7CCC(=O)NC7=O)C8=O)CC6)C5)CC4)cn3)CC2)cc1C(F)(F)F (stereo not shown) [Example 136]
TEST_SYSTEM: Androgen Receptor (AR) protein (Homo sapiens, UniProt P10275, T878A)
PROPERTY_LABEL: inhibition at 1 µM
RECORDED_VALUE: 91%
--
MOLECULE: C[C@@H]1CN(CC2CCN(c3ccc(NC(=O)C4CCN(c5ccc(C#N)c(C(F)(F)F)c5)CC4)nc3)CC2)CCN1CC1CCN(c2ccc3c(c2)C(=O)N(C2CCC(=O)NC2=O)C3=O)CC1 (stereo partly shown) [Example 25]
TEST_SYSTEM: Androgen Receptor (AR) protein (Homo sapiens, UniProt P10275, T878A)
PROPERTY_LABEL: inhibition at 1 µM
RECORDED_VALUE: 98%
--
MOLECULE: N#Cc1ccc(N2CCC(C(=O)Nc3ccc(N4CCC(CN5CCC(CN6CCN(c7ccc8c(c7)C(=O)N(C7CCC(=O)NC7=O)C8=O)CC6)CC5)CC4)cn3)CC2)cc1C(F)(F)F (stereo not shown) [Example 81]
TEST_SYSTEM: Androgen Receptor (AR) protein (Homo sapiens, UniProt P10275, T878A)
PROPERTY_LABEL: inhibition at 1 µM
RECORDED_VALUE: 96%
--
MOLECULE: N#Cc1ncc(N2CCC(F)(C(=O)Nc3ccc(N4CCC(CN5CCN(C6CCN(c7ccc8c(c7)C(=O)N(C7CCC(=O)NC7=O)C8=O)CC6)CC5)CC4)cn3)CC2)cc1C(F)(F)F (stereo not shown) [Example 74]
TEST_SYSTEM: Androgen Receptor (AR) protein (Homo sapiens, UniProt P10275, T878A)
PROPERTY_LABEL: inhibition at 1 µM
RECORDED_VALUE: 83%
--
MOLECULE: N#Cc1ncc(N2CCC(F)(C(=O)Nc3ccc(N4CCC(CN5CCN(CC6CCN(c7ccc8c(c7)C(=O)N(C7CCC(=O)NC7=O)C8=O)CC6)CC5)CC4)cn3)CC2)cc1C(F)(F)F (stereo not shown) [Example 10]
TEST_SYSTEM: Androgen Receptor (AR) protein (Homo sapiens, UniProt P10275, T878A)
PROPERTY_LABEL: inhibition at 1 µM
RECORDED_VALUE: 74%

Data provenance: patent US12122763B2
